target: SHP2 (Homo sapiens (Human), UniProt Q06124); experiment: SHP2 Allosteric Inhibition Assay; assay type: biochemical; details: 0.5 nM SHP2 activated with 0.5 μM peptide IRS1_pY1172(dPEG8)pY1222, surrogate substrate DiFMUP, fluorescence
Sequence (Q06124 whole entry): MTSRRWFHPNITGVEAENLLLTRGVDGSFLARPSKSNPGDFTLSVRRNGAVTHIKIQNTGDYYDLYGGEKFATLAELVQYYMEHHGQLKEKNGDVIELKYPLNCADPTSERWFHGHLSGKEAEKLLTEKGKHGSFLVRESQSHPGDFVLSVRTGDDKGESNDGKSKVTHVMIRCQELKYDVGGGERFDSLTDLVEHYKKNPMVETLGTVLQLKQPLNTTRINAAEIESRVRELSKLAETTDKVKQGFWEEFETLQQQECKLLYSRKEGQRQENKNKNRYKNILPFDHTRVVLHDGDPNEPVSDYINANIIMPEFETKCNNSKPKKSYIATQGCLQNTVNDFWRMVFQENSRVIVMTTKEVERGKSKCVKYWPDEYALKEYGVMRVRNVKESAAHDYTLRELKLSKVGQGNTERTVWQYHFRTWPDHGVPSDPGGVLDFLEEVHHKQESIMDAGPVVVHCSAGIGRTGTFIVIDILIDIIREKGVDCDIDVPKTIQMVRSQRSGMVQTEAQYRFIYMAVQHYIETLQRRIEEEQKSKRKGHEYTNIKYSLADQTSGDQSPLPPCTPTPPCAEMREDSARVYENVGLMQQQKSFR
pIC50: −log10 of the molar value.
pIC50 vs 8: at or above is Condition met, below is Condition not met.

>>> classification("NC(=O)c1nc(Sc2cccnc2C(F)(F)F)c(N)nc1N1CCC2(CC[C@@H]2N)CC1 [Example 22]")
"Condition not met"
>>> classification("Nc1nc(N2CC3(CCC3N)C2)cnc1-c1cccc(Cl)c1Cl (stereo not drawn) [Example 9]")
"Condition not met"
>>> classification("C[C@@H]1C[C@@H](N)C2(CCN(c3cnc(Sc4ccnc(N)c4Cl)c(N)n3)CC2)C1 [Example 71]")
"Condition met"
>>> classification("Nc1nc(N2CCC3(CC[C@@H]3N)CC2)cnc1Sc1cccnc1C(F)(F)F [Example 20]")
"Condition not met"
>>> classification("NC(=O)c1cc(Sc2cccnc2C(F)(F)F)c(N)nc1N1CCC2(CCC[C@H]2N)CC1 [Example 39]")
"Condition not met"

Is pIC50 at least 8? Consider CO[C@H]1C[C@@H](N)C2(CCN(c3cnc(Sc4ccnc(Cl)c4Cl)c(N)n3)CC2)C1 [Example 60]
Condition met

Assess whether reported pIC50 for Nc1nc(N2CCC3(CCCC3N)CC2)cnc1Sc1cccc(Cl)c1Cl (stereo not drawn) [Example 2] sits at 8 or higher.
Condition not met
